Test Method Notes: Cytotoxicity against human A549 cells assessed as inhibition of cell proliferation after 4 days by Coulter counter analysis
Format: cell-based

{"Compound Structure String": "CCCCCCCCCCCCCCCCOCCCOP(=O)(CCOCCn1cnc2c(=O)[nH]c(N)nc21)OCCCOCCCCCCCCCCCCCCCC", "CC50 at 96 h": "> 300 µM"}
{"Compound Structure String": "Nc1nc2c(ncn2CC(COCP(=O)(O)O)COCP(=O)(O)O)c(=O)[nH]1", "CC50 at 96 h": "> 300 µM"}
{"Compound Structure String": "CCOC(=O)[C@H](C)NP(=O)(CCOCCn1cnc2c(=O)[nH]c(N)nc21)N[C@@H](C)C(=O)OCC", "CC50 at 96 h": "> 300 µM"}
{"Compound Structure String": "Nc1nc2c(ncn2CCOCCP(=O)(O)O)c(=O)[nH]1", "CC50 at 96 h": "> 300 µM"}
{"Compound Structure String": "CCCCCCCCCCCCCCCCOCCCOP(=O)(O)CCOCCn1cnc2c(=O)[nH]c(N)nc21", "CC50 at 96 h": "61 µM"}
{"Compound Structure String": "CCOC(=O)[C@H](Cc1ccccc1)NP(=O)(COCC(COCP(=O)(N[C@@H](Cc1ccccc1)C(=O)OCC)N[C@@H](Cc1ccccc1)C(=O)OCC)Cn1cnc2c(=O)[nH]c(N)nc21)N[C@@H](Cc1ccccc1)C(=O)OCC", "CC50 at 96 h": "> 300 µM"}
{"Compound Structure String": "CCOC(=O)[C@H](Cc1ccccc1)NP(=O)(COCC(COCP(=O)(N[C@@H](Cc1ccccc1)C(=O)OCC)N[C@@H](Cc1ccccc1)C(=O)OCC)Cn1cnc2c(=O)[nH]cnc21)N[C@@H](Cc1ccccc1)C(=O)OCC", "CC50 at 96 h": "101 µM"}
